Measured ED50 accompanies every entry in the list below.
Tested on: Rat
ASSAY: Anorexia, single oral application in rat (ED 50)
Type: in vivo
STUDY_CONDITIONS: dissolved in equivalent quantities of HCl
Description: The first column gives the respective two alkyl groups which are fixed in the α-position to the otherwise unsubstituted tryptamines.

Sample answers from the record:
COMPOUND | TARGET_OR_TEST_SYSTEM | MEASURED_RESULT
CCC(C)(N)Cc1c[nH]c2ccccc12 (centres unmarked) | Rat | 15 mg/kg
CC(C)(N)Cc1c[nH]c2ccccc12 [Methyl, methyl, α,α-dimethyl tryptamine, reference compound] | Rat | 36 mg/kg
CCCC(N)(CCC)Cc1c[nH]c2ccccc12 | Rat | > 50 mg/kg
CCCC(C)(N)Cc1c[nH]c2ccccc12 (centres unmarked) | Rat | ~50 mg/kg

Consider the record given below.
Q. // Input: "CCC(N)(CC)Cc1c[nH]c2ccccc12" . Output its ED50 only.
A. > 50 mg/kg

Taken from patent US3947584A.
